Taken from paper PMC12384454.

experiment: RP-TLC lipophilicity (RM0, log PTLC, C0), silica gel RP-18F254, acetone/TRIS buffer pH 7.4; assay type: physicochemical; conditions: chromatography hydrophobic index, C0 = −RM0/b
outcome measure: C0
In your answer, state the number alone without any accompanying words.

Q. Provide measured C0 value, entry: `Cc1ccc(S(=O)(=O)NCCCCN2c3cc(Cl)ccc3Sc3cc4ccccc4nc32)cc1`
A. 80.41

Q. Provide measured C0 value, entry: `Cc1ccc(S(=O)(=O)NCCCN2c3cc(Cl)ccc3Sc3cc4ccccc4nc32)cc1`
A. 79.96

Okay, now this compound:
Q. Provide measured C0 value, entry: `CCOC(=O)NCCCN1c2cc(Cl)ccc2Sc2cc3ccccc3nc21`
A. 81.74
